- Cond: 298.15 K; 101.33 kPa; Liquid; Sing-around technique in a fixed-path interferometer
Outcome measure: speed of sound (m/s)
// units = m/s; emit number, no label

The reported value for c1ccncc1 in terms of speed of sound is 1417.8

The reported value for O=C1CCCN1 in terms of speed of sound is 1633.9

The reported value for CN1CCCC1=O in terms of speed of sound is 1546

The reported value for CCn1cc[n+](C)c1.F[B-](F)(F)F [1-ethyl-3-methylimidazolium tetrafluoroborate] in terms of speed of sound is 1619.4

====

I'd be grateful if you could share measured mass density for these entries.
- Cond: 298.15 K; 101.33 kPa; Liquid; Vibrating tube method
// units = kg/m3; emit number, no label

The reported value for CCn1cc[n+](C)c1.F[B-](F)(F)F [1-ethyl-3-methylimidazolium tetrafluoroborate] in terms of mass density is 1279.91

The reported value for c1ccncc1 in terms of mass density is 978.252

The reported value for O=C1CCCN1 in terms of mass density is 1107.15

The reported value for CN1CCCC1=O in terms of mass density is 1028.23
